# system tested: T1, Rat RGMa-His (rat) (UniProt D4A188)
# T1 sequence: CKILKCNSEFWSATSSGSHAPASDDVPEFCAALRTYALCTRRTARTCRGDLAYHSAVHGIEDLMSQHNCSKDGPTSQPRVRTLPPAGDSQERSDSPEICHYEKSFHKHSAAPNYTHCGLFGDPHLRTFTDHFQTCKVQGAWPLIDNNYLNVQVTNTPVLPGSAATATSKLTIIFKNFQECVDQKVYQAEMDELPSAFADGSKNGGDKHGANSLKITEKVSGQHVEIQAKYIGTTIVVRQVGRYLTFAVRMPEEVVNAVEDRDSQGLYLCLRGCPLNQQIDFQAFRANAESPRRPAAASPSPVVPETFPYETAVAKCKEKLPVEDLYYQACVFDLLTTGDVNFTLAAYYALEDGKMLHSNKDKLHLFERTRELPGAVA
# test details: BIAcore
Each entry below lists one item and its recorded koff value.
Lab book: enter the figure in s⁻¹, no units written.

>  <binder>
AE12-1-K (antibody, V domains shown) VH: EVQLVQSGAEVKKPGASVKVSCKASGYTFTSHGISWVRQAPGQGLDWMGWISPYSGNTNYAQKLQGRVTMTTDTSTSTAYMELSSLRSEDTAVYYCARVGSGPYYYMDVWGQGTLVTVSS VL: QSALTQPRSVSGSPGQSVTISCTGTSSSVGDSIYVSWYQQHPGKAPKLMLYDVTKRPSGVPDRFSGSKSGNTASLTISGLQAEDEADYYCKSYAGTDTLFGGGTKVTVL

>  <koff (s⁻¹)>
0.00028

$$$$
>  <binder>
AE12-1-H (antibody, V domains shown) VH: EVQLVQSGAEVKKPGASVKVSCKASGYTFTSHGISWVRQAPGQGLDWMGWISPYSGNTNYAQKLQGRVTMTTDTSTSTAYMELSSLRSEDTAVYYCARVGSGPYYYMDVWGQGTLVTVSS VL: QSALTQPRSVSGSPGQSVTISCTGTSSSVGDSIYVSWYQQHPGKAPKLMLYDVTKRPSGVPDRFSGSKSGNTASLTISGLQAEDEADYYCHSYAGTDTLFGGGTKVTVL

>  <koff (s⁻¹)>
0.00025

$$$$

Shift focus to the following entry.
Retrieve koff measured for AE12-1-Y (antibody, V domains shown) VH: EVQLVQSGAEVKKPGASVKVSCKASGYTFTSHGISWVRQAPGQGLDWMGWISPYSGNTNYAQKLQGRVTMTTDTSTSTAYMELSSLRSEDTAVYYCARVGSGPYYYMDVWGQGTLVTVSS VL: QSALTQPRSVSGSPGQSVTISCTGTSSSVGDSIYVSWYQQHPGKAPKLMLYDVTKRPSGVPDRFSGSKSGNTASLTISGLQAEDEADYYCYSYAGTDTLFGGGTKVTVL and print it.
6.9e-05
